For each entry below, report its TGI value.
System: KM20L2 colon
METHOD: NCI tumour cell line growth inhibition, 48 h

Please indicate TGI recorded for Cc1nc(N2N=C(c3ccc(Cl)cc3)CCC2=O)sc1[N+](=O)[O-]
> 100 µM

Please indicate TGI recorded for O=c1c2ccccc2nc2n1-c1ccccc1SC2
> 100 µM

Please indicate TGI recorded for O=[N+]([O-])c1ccc(C2=Nn3c(nnc3-c3ccc(Cl)cc3)SC2)o1
16.1 µM

Please indicate TGI recorded for O=C1C=CC(=O)c2c1ccc1c3ccccc3n(-c3ccccc3)c21
36.9 µM

Please indicate TGI recorded for CCCCC(C(=O)CCC(=O)Nc1ccc(Cl)c(Cl)c1)C(=O)C(C)C (stereo not drawn)
> 100 µM

Please indicate TGI recorded for N#Cc1cc([N+](=O)[O-])ccc1NC(=O)/C(=N\NC(=O)c1ccncc1)C(c1cnc2ccc([N+](=O)[O-])cc2n1)[N+](=O)[O-] (stereo not drawn)
25.1 µM

Please indicate TGI recorded for C/C(CC(=O)Nc1cc(C)ccc1C)=N/N=C(N)N
> 100 µM

Please indicate TGI recorded for CCOC(=O)NC/C=C/COC1CCCCO1 (stereo not drawn)
> 100 µM

---

Test system: DU-145 prostate
METHOD: NCI tumour cell line growth inhibition, 48 h
READOUT: TGI

Please indicate TGI recorded for C[C@@H]1CCC([C@@H](C)[C@H]2CC[C@H]3[C@@H]4CC[C@H]5C[C@@H](O)CC[C@]5(C)[C@H]4CC[C@]23C)=NC1
> 100 µM

Please indicate TGI recorded for Cc1ccc(N=NC(=Nc2ccc(Cl)cc2)c2ccc(N(CCC#N)CCC#N)cc2)cc1
> 100 µM

Please indicate TGI recorded for O=C(O)C(C(=O)O)P(=S)(S)c1ccccc1 (stereo not drawn)
> 100 µM

---

Test system: SNB-75 CNS
METHOD: NCI tumour cell line growth inhibition, 48 h; in the data active = GI50 below about 0.43 µM; inactive = the rest
Give one outcome, nothing more. List: 1 = active, 0 = inactive

Outcome logged for CCN1C(=O)N(CC)C2C1NN=c1s/c(=C\c3ccco3)c(=O)n12 (centres undefined) in this assay:
1

Outcome logged for CN1CCC2(CC1)NC(=O)c1c(c3ccc(Cl)c(Cl)c3n1C)C2C#N (centres undefined) in this assay:
0

Outcome logged for N#Cc1c(N)n2c(nc1=Nc1ccc(Cl)cc1)sc1cc(Cl)ccc12 in this assay:
0

Outcome logged for Cc1nc(-c2nc(-c3ccc(OC(F)(F)F)cc3)no2)nn1Cc1cccc(N2CCC(S(C)(=O)=O)CC2)c1 in this assay:
0

---

System: IGROV1 ovarian
METHOD: NCI tumour cell line growth inhibition, 48 h
For each entry below, report its TGI value.

Please indicate TGI recorded for O=C1CC2(CCC3=C(O2)c2ccccc2NC(=O)C3)C(=O)c2ccccc2N1 (stereo not drawn)
> 100 µM

Please indicate TGI recorded for O=[N+]([O-])c1ccc(C2CC(c3ccccc3)=Nc3ccccc3S2)cc1 (stereo not drawn)
> 100 µM

Please indicate TGI recorded for Cc1[nH]c(=O)[nH]c(=O)c1/C=C/C(=O)NC(CO)CS(=O)Cc1ccccc1 (stereo not drawn)
> 300 µM

Please indicate TGI recorded for O=C1[C@@H]2C(c3ccccc3[N+](=O)[O-])=[N+](c3ccccc3)O[C@@H]2C(=O)N1c1ccc(Cc2ccc(N3C(=O)[C@H]4C(c5ccccc5[N+](=O)[O-])=[N+](c5ccccc5)O[C@H]4C3=O)cc2)cc1
> 100 µM

Please indicate TGI recorded for CCOC(=O)CCSc1nc2ccc(I)cc2c(=O)n1Cc1ccccc1
> 100 µM

Please indicate TGI recorded for NC(=O)c1ncn(C2OC(CO)C(O)C2O)c1NC=O (stereo not drawn)
> 100 µM

Please indicate TGI recorded for Cc1nc(-c2nc(-c3ccc(OC(F)(F)F)cc3)no2)nn1Cc1cccc(N2CCC(S(C)(=O)=O)CC2)c1
> 100 µM

Please indicate TGI recorded for N=N/C(=C\c1c(O)[nH]c2ccccc12)c1ccccc1
> 100 µM

---

For each entry below, report its TGI value.
System: SF-295 CNS
METHOD: NCI tumour cell line growth inhibition, 48 h

Please indicate TGI recorded for O=c1c2ccccc2nc2n1-c1ccccc1SC2
> 100 µM

Please indicate TGI recorded for O=[N+]([O-])c1ccc(C2CC(c3ccccc3)=Nc3ccccc3S2)cc1 (centres undefined)
> 100 µM

Please indicate TGI recorded for Cc1cc(O)cc(C)c1/C=C/c1cncc(C(N)=O)c1
> 25 µM

Please indicate TGI recorded for COC(=O)C1=C(OC(=O)/C(=C/c2ccccc2)c2ccc(Cl)cc2)C(C(=O)OC)[C@@]2(O)[C@@H](C(=O)OC)[C@H](C)C[C@@H]1[C@@H]2C(=O)OC (some centres undefined)
> 100 µM

Please indicate TGI recorded for C#CCN(Cc1nc2cc(C(F)(F)F)ccc2nc1-c1ccccc1)c1ccc(C)cc1
> 31.8 µM

Please indicate TGI recorded for O=C(O)CCc1nc2ccccc2[nH]1
> 100 µM

Please indicate TGI recorded for [N-]=[N+]=Nc1c(Cl)c(Cl)nc2ccccc12
> 100 µM

Please indicate TGI recorded for CCOC(=O)C1C(C)C2(C#N)C(=N)OC1(C)C2(C#N)C#N (centres undefined)
> 100 µM

Please indicate TGI recorded for CCOC(=O)Nc1nc2ccc(Br)cc2s1
> 50 µM

---

Test system: BT-549 breast
METHOD: NCI tumour cell line growth inhibition, 48 h
For each entry below, report its TGI value.

Please indicate TGI recorded for O=C([O][Hg][CH2]C1OCCOC1[CH2][Hg][O]C(=O)c1ccccc1)c1ccccc1 (centres undefined)
20.4 µM

Please indicate TGI recorded for Cc1occc1C(=S)Nc1ccc(Cl)c(/C=N/OC(C)(C)C)c1
32.2 µM

Please indicate TGI recorded for CCCCCCn1c(-c2ccc(C(=O)O/N=C(\N)c3ccc4ccccc4c3)cc2)nc(-c2ccccc2)c1-c1ccccc1
> 100 µM

Please indicate TGI recorded for O[C@H]1[C@H](O)[C@@H](O)[C@@]2(O)CC[C@@H]1N2
> 100 µM

---

System: NCI-H522 lung
METHOD: NCI tumour cell line growth inhibition, 48 h
READOUT: TGI

Return reported TGI for target or system NCI-H522 lung, item CNC(=O)NCCN1CC2CCC(CC2)C1 .
> 10 µM

Return reported TGI for target or system NCI-H522 lung, item C#C/C=C\CCCCCCCCCCCCCC/C=C\CCCCC#CC(O)C#CCCCC/C=C\CCCCCC/C=C/C(O)C#C (stereo not drawn) .
> 16 µM

Return reported TGI for target or system NCI-H522 lung, item NC(=O)c1ncn(C2OC(CO)C(O)C2O)c1NC=O (stereo not drawn) .
> 100 µM

---

Test system: OVCAR-8 ovarian
METHOD: NCI tumour cell line growth inhibition, 48 h
For each entry below, report its TGI value.

Return reported TGI for target or system OVCAR-8 ovarian, item N#Cc1ccc(CSC2=C(c3ccc(Cl)cc3)S/C(=C3\SC(SCc4ccc(C#N)cc4)=C(c4ccc(Cl)cc4)S3)S2)cc1 .
> 100 µM

Return reported TGI for target or system OVCAR-8 ovarian, item Cc1ccc(NC(=O)c2cc3ccccc3c(N=Nc3cc(S(=O)(=O)O)ccc3O)c2O)c(C)c1 .
> 100 µM

Return reported TGI for target or system OVCAR-8 ovarian, item CC1(Br)CC2OC3(Br)C=CC(C)(O)C2(CC1=O)C3(C)C (stereo not drawn) .
> 100 µM

---

For each entry below, report its TGI value.
Tested on: SF-539 CNS
METHOD: NCI tumour cell line growth inhibition, 48 h
Please respond with the number in µM and leave the unit unwritten.

Please indicate TGI recorded for COc1cc2c(cc1Cc1cccc(Cl)c1F)c(=O)c(C(=O)O)cn2[C@@H](CO)C(C)C
10.7

Please indicate TGI recorded for N#C[Se]CCN1C(=O)C2C(C1=O)[C@H]1C=C[C@@H]2S1 (some centres undefined)
3.18

---

For each entry below, report its TGI value.
Tested on: SNB-19 CNS
METHOD: NCI tumour cell line growth inhibition, 48 h

Please indicate TGI recorded for C=CCN1C[C@H](C)N([C@@H](c2ccc(C(=O)N3CCCCC3)cc2)c2cccc(OC)c2)C[C@H]1C
> 100 µM

Please indicate TGI recorded for O=c1[nH]nc(Cc2ccccc2)n1CCCl
> 100 µM

Please indicate TGI recorded for COc1cc(/C=N\c2nc(-c3ccc(NS(=O)(=O)c4ccc(Cl)c(OC)c4)cc3)cs2)ccc1O
> 100 µM

---

Test system: A549 NSCLC
METHOD: NCI tumour cell line growth inhibition, 48 h
For each entry below, report its TGI value.

Please indicate TGI recorded for Cc1c(Cl)nc(Cl)nc1Cl
7.34 µM

Please indicate TGI recorded for O=C(OCc1ccc([N+](=O)[O-])cc1)N1c2ccccc2[C@@]23O[C@]24CCC[C@H]3C#C/C=C\C#C[C@H]14
> 100 µM

Please indicate TGI recorded for C/C(=N\NC(=S)NCCCCNC(=S)N/N=C(\C)c1ccccn1)c1ccccc1
> 58 µM

Please indicate TGI recorded for Cc1nn2c(nc1=O)sc1ccc3ccccc3c12
> 100 µM

Please indicate TGI recorded for COc1cc(/C=N\c2nc(-c3ccc(NS(=O)(=O)c4ccc(Cl)c(OC)c4)cc3)cs2)ccc1O
> 100 µM

Please indicate TGI recorded for CCOC(=O)c1cc(C(=O)c2cc(OC)c(OC)c(OC)c2)n2c1ccc1ccccc12
> 100 µM

Please indicate TGI recorded for CCCCCCCCCCCCSC1=C(Cl)C(=O)C(OC)=C(OC)C1=O
21.1 µM

The reported measurements were obtained from PubChem BioAssay (NCI).
